Property label: melting point

> print(dat)
                                   compound  measured.result
1  COc1ccc(Nc2nc(NC3CCCCCC3)nc(OC(C)C)n2)cc1Cl    136 to 138 °C

stdin: Entry under review: `COc1ccc(Nc2nc(NC3CCCCCC3)nc(N(C)C3CCNCC3)n2)cc1Cl` . Reported melting point?
stdout: 114 to 116 °C

stdin: Entry under review: `COc1ccc(Nc2nc(NC3CCCCCC3)nc(Oc3ccccc3F)n2)cc1Cl` . Reported melting point?
stdout: 98 to 100 °C

stdin: Entry under review: `COc1ccc(Nc2nc(NC3CCCCCC3)nc(N3CCSCC3)n2)cc1Cl` . Reported melting point?
stdout: 78 to 80 °C

stdin: Entry under review: COc1ccc(Nc2nc(NC3CCCCCC3)nc(OCC3CCCN3)n2)cc1Cl (stereo not drawn) . Reported melting point?
stdout: 84 to 86 °C

stdin: Entry under review: COc1ccc(Nc2nc(NC3CCCCCC3)nc(OC3CCCN(C(C)=O)C3)n2)cc1Cl (stereo not drawn) . Reported melting point?
stdout: 138 to 140 °C

* * *

Tested on: cells
Experiment: Cytotoxicity / lactate dehydrogenase assay and visual observation of cells
Format: cell-based
Conditions: at 10 uM
Source text: Assays for determining the activity of compounds capable of cytotoxic activity include those taught in herein and others that are well known in the art. […] For example, the amount of nucleic acid or protein synthesis can be measured or visual observation of the state of the cells, such as release from the substrate, can be used to measure the state of the cells. […]
// values below are reported cell death under Inflammation Data

> print(dat)
                                   compound  measured.result
1  COc1ccc(Nc2nc(NC3CCCCCC3)nc(NC3CCN(Cc4ccccc4)CC3)n2)cc1Cl [drawing 1010]            > 50%

Next compound, please.
stdin: Entry under review: `COc1ccc(Nc2nc(NC3CCCCCC3)nc(NC3CCNCC3)n2)cc1` . Reported cell death under Inflammation Data?
stdout: > 50%
